assay: Solubility pH7.4; format: physicochemical; conditions: pH 7.4, aqueous buffer
ASSAY_METRIC: solubility (µg/mL)
Write the number in µg/mL without appending the unit.

Solved entries:
>>> reported_value("C[C@@H](C[C@H](NC(=O)c1ccc(-c2ccccc2)cc1F)C(=O)NC(C)(C)Cc1ccc(F)cc1)C(=O)O")
648
>>> reported_value("COc1cc(CNC(=O)[C@H](CC(C)C(=O)O)NC(=O)c2ccc(-c3ccccc3)cc2)cc(OC)c1OC (mixture of isomers)")
850

Give the value of solubility reported for the following: `COC[C@@H](C[C@H](NC(=O)c1ccc(-c2ccccc2)cc1)C(=O)NC(C)(C)Cc1ccc(F)cc1)C(=O)O` 838

Hello, please tell me recorded solubility for this one: `C[C@@H](C[C@H](NC(=O)c1ncc(-c2ccc(F)cc2)s1)C(=O)NC(C)(C)Cc1ccc(F)cc1)C(=O)O` 912
